Each item that follows carries a reported pEC50.
- Target system: human PXR (Homo sapiens, UniProt O75469)
- Sequence (O75469 whole entry): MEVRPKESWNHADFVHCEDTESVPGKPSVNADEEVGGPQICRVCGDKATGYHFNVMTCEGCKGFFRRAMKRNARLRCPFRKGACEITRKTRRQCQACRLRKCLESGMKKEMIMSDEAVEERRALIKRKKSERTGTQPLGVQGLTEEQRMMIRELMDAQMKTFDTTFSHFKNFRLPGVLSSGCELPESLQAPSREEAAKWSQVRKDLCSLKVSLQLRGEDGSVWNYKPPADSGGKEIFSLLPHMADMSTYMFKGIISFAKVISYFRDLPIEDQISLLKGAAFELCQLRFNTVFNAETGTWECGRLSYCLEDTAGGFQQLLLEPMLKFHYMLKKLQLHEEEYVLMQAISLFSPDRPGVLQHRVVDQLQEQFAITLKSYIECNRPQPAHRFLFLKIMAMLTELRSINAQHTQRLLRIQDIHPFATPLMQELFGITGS
- Assay name: Activation of human PXR
- Assay type: cell-based
pEC50: −log10 of the molar value.

>>> reported_result("NS(=O)(=O)Nc1ncnc(OCCOc2ncc(Br)cn2)c1-c1ccc(Br)cc1")
"5.06 to 5.14"

Quick note, pEC50 for `CCCNS(=O)(=O)Nc1ncnc(OCCOc2ncc(Br)cn2)c1-c1ccc(Br)cc1` landed at 5.92 to 5.96
